Data provenance: patent US20150045424A1

// Fructosamine Mean values lookup, one value per entry
Tested on: C57BL/KsJ db/db mice
experimental.protocol: Plasma fructosamine levels of db/db mice (indicator of protein glycosylation)
Format: in vivo, mouse
condition.parameters: oral twice daily for 25 days, post-absorption (fasting 9 a.m. to 4.30 p.m.), 7.5 hours after last treatment, n=6
Your answer should be a plain number; it is taken to be in mM.

Solved entries (count: 3):
* C[N+](C)(C)C[C@H](O)CC(=O)[O-] | 0.81
* CCC(=O)O[C@H](CC(=O)[O-])C[N+](C)(C)C | 0.81
* CCC(C)(C)C(=O)O[C@H]1C[C@@H](C)C=C2C=C[C@H](C)[C@H](CC[C@@H]3C[C@@H](O)CC(=O)O3)[C@H]21 | 0.76

Next, consider the following compound.
Request: Item under review: CC(=O)O[C@H](CC(=O)[O-])C[N+](C)(C)C . Reported Fructosamine Mean values?
Result: 0.85

---

System: C57BL/KsJ db/db mice
experimental.protocol: Oral glucose tolerance test (OGTT) in db/db mice
Format: in vivo, mouse
condition.parameters: oral twice daily for 18 days, OGTT glucose 3 g/kg, fasted 18 hours, 5 hours after last treatment, n=6
value.kind: AUC Glucose (OGTT) Mean values (u.a.)
Your answer should be a plain number; it is taken to be in u.a..

Solved entries (count: 3):
* C[N+](C)(C)C[C@H](O)CC(=O)[O-] | 50187.8
* CCC(=O)O[C@H](CC(=O)[O-])C[N+](C)(C)C | 49005.5
* CC(=O)O[C@H](CC(=O)[O-])C[N+](C)(C)C | 49332.3

Next, consider the following compound.
Request: # get_value(readout= AUC Glucose (OGTT) Mean values, system= C57BL/KsJ db/db mice) for CCC(C)(C)C(=O)O[C@H]1C[C@@H](C)C=C2C=C[C@H](C)[C@H](CC[C@@H]3C[C@@H](O)CC(=O)O3)[C@H]21
Result: 50973.3
